relative viability values by entry
System: NCI-H2023
Procedure Text: relative viability (nuclei count vs DMSO), 5 days (fraction); higher = more cells survive
Test Settings: first compound 0.6325 µM

The examples below pair each entry with its known result.
[[record]]
molecule = "COCC1(CO)C(=O)C2CCN1CC2 (stereo not given) [PRIMA-1MET] + CC(=O)Nc1cccc(-n2c(=O)n(C3CC3)c(=O)c3c(Nc4ccc(I)cc4F)n(C)c(=O)c(C)c32)c1 [Trametinib] (partner 0.02 µM)"
obs_value = 0.556

[[record]]
molecule = "COCC1(CO)C(=O)C2CCN1CC2 (stereo not given) [PRIMA-1MET] + COc1cc2c(Oc3ccc(NC(=O)C4(C(=O)Nc5ccc(F)cc5)CC4)cc3F)ccnc2cc1OCCCN1CCOCC1 [Foretinib] (partner 0.25 µM)"
obs_value = 0.781


Query COCC1(CO)C(=O)C2CCN1CC2 (stereo not given) [PRIMA-1MET] + CC1(C)CCC(c2ccc(Cl)cc2)=C(CN2CCN(c3ccc(C(=O)NS(=O)(=O)c4ccc(N[C@H](CCN5CCOCC5)CSc5ccccc5)c(S(=O)(=O)C(F)(F)F)c4)cc3)CC2)C1 [Navitoclax] (partner 0.5 µM) yields relative viability of 0.999

Query COCC1(CO)C(=O)C2CCN1CC2 (stereo not given) [PRIMA-1MET] + CC(=O)c1c(C)c2cnc(Nc3ccc(N4CCNCC4)cn3)nc2n(C2CCCC2)c1=O [Palbociclib] (partner 0.5 µM) yields relative viability of 0.379

Query COCC1(CO)C(=O)C2CCN1CC2 (stereo not given) [PRIMA-1MET] + CCNC(=O)c1noc(-c2cc(C(C)C)c(O)cc2O)c1-c1ccc(CN2CCOCC2)cc1 [Luminespib] (partner 0.01 µM) yields relative viability of 0.85

* * *

Test system: NCI-H1944
Procedure Text: relative viability (nuclei count vs DMSO), 5 days (fraction); higher = more cells survive
Test Settings: first compound 0.08 µM
relative viability values by entry

[[record]]
molecule = "O=c1cc(-c2cccc3c2Sc2ccccc2S3)oc(N2CCOCC2)c1 + C[C@@H](Oc1cc(-c2cnn(C3CCNCC3)c2)cnc1N)c1c(Cl)ccc(F)c1Cl [Crizotinib] (partner 1 µM)"
obs_value = 1.12

[[record]]
molecule = "COc1nc(C)cnc1NS(=O)(=O)c1cccnc1-c1ccc(-c2nnco2)cc1 [Zibotentan] + Cc1nc(Nc2ncc(C(=O)Nc3c(C)cccc3Cl)s2)cc(N2CCN(CCO)CC2)n1 [Dasatinib] (partner 0.075 µM)"
obs_value = 0.193

[[record]]
molecule = "O=c1cc(-c2cccc3c2Sc2ccccc2S3)oc(N2CCOCC2)c1 + C[C@]1(O)C[C@@H](c2nc(-c3ccc4ccc(-c5ccccc5)nc4c3)c3c(N)nccn32)C1 [Linsitinib] (partner 1 µM)"
obs_value = 1.04

[[record]]
molecule = "O=c1cc(-c2cccc3c2Sc2ccccc2S3)oc(N2CCOCC2)c1 + Cc1cc(Nc2cc(N3CCN(C)CC3)nc(Sc3ccc(NC(=O)C4CC4)cc3)n2)n[nH]1 [Tozasertib] (partner 0.1 µM)"
obs_value = 0.252


Query COc1nc(C)cnc1NS(=O)(=O)c1cccnc1-c1ccc(-c2nnco2)cc1 [Zibotentan] + N=C(N)NC(=N)NCCc1ccccc1 [Phenformin] (partner 250 µM) yields relative viability of 0.226

Query COc1nc(C)cnc1NS(=O)(=O)c1cccnc1-c1ccc(-c2nnco2)cc1 [Zibotentan] + CS(=O)(=O)N1CCN(Cc2cc3nc(-c4cccc5[nH]ncc45)nc(N4CCOCC4)c3s2)CC1 [Pictilisib] (partner 1 µM) yields relative viability of 0.368

Query O=c1cc(-c2cccc3c2Sc2ccccc2S3)oc(N2CCOCC2)c1 + Nc1ncn([C@H]2C[C@H](O)[C@@H](CO)O2)c(=O)n1 [Decitabine] (partner 2 µM) yields relative viability of 0.406

Query COc1nc(C)cnc1NS(=O)(=O)c1cccnc1-c1ccc(-c2nnco2)cc1 [Zibotentan] + O=C(CCCCCCC(=O)Nc1ccccc1)NO [Vorinostat] (partner 1 µM) yields relative viability of 0.674

Query COc1nc(C)cnc1NS(=O)(=O)c1cccnc1-c1ccc(-c2nnco2)cc1 [Zibotentan] + CC(=O)c1c(C)c2cnc(Nc3ccc(N4CCNCC4)cn3)nc2n(C2CCCC2)c1=O [Palbociclib] (partner 0.5 µM) yields relative viability of 0.366
